- method-description: solvent given as SMILES
- condition-context: in CO
We begin with a simple list: items and their reported emission maximum.

{"columns": ["compound-structure-string", "emission maximum / nm"],
 "data": [
  ["NCc1ccc2ccc3cccc4ccc1c2c34", 375],
  ["Cn1c(=O)c(/N=N/c2cc(S(=O)(=O)O)ccc2C(=O)O)c(O)c2ccccc21", 532],
  ["c1ccc(-c2nc(-c3cccc4ccccc34)n3ccccc23)cc1", 475],
  ["COC(=O)c1c2ccccc2nc2ccccc12", 432],
  ["Cc1nc2c(c[n+]1C)CN1C(=O)N([C@H]3O[C@@H](CO)[C@H](O)[C@@H]3O)C=CC1=N2", 417],
  ["CN(C)c1ccc2c(c1)C(C)(C)C1=CC(=[N+](C)C)C=CC1=C2C#Cc1ccccc1", 705],
  ["CN(C)c1ncc2nc(C#N)n(Cc3ccccc3)c2n1", 456],
  ["c1ccc2c(-c3cc(-c4nccs4)nc(-c4nccs4)c3)cccc2c1", 422]
]}

---

- method-description: solvent given as SMILES
- condition-context: in OCCO
readout-name: emission maximum (nm)

{"columns": ["molecule", "quantitative-result"],
 "data": [
  ["Cc1cc(O)c(C(C)C)cc1/N=C/c1ccc(O)cc1", 421],
  ["CN(C)c1c2ccccc2cc2ccccc12", 392],
  ["Cc1ccc(/C=N/c2cc(C(C)C)c(O)cc2C)cc1", 425],
  ["COC(=O)C(Cc1ccc2oc(-c3ccc(N(C)C)cc3)nc2c1)NC(=O)OC(C)(C)C (stereo not given)", 408.5],
  ["COC(=O)c1c2ccccc2nc2ccccc12", 418]
]}

---

We begin with a simple list: items and their reported emission maximum.
- method-description: solvent given as SMILES
- condition-context: in C1COCCO1
readout-name: emission maximum (nm)

{"columns": ["molecule", "uom", "quantitative-result"],
 "data": [
  ["CN(C)c1ccc(/C=C/c2nc3ccccc3s2)cc1", "nm", 467],
  ["O=S(=O)([O-])c1ccc(O)c2ccccc12", "nm", 357],
  ["O=C1/C(=C2\\Sc3ccc(S(=O)(=O)O)cc3C2=O)Sc2ccc(S(=O)(=O)O)cc21", "nm", 587],
  ["Cc1ccc(/C=N/c2cc(C(C)C)c(O)cc2C)cc1", "nm", 408],
  ["COC(=O)c1nc2c(OCc3ccccc3)nc(N)nc2n1Cc1ccccc1", "nm", 376],
  ["Cc1ccc(C2CC(c3ccc(O)cc3)=NN2c2ccc(S(N)(=O)=O)cc2)cc1 (stereo unspecified)", "nm", 417],
  ["c1cc2ccc3ccc(-c4ccc(-c5nnc(-c6ccc(-c7nnc(-c8ccc(-c9ccc%10ccc%11cccc%12ccc9c%10c%11%12)s8)o7)cc6)o5)s4)c4ccc(c1)c2c34", "nm", 373],
  ["O=C(O)c1ccccc1Nc1cccc(C(F)(F)F)c1", "nm", 410],
  ["CCCCN(CCCC)c1ccc(/C=C/c2ccc3nc(/C=C/c4ccc(N(C)C)cc4)c(-c4ccccc4)nc3c2)cc1", "nm", 549],
  ["CC(=O)c1c2c(cc3ccc(N(C)C)cc13)CCC2", "nm", 495],
  ["C(/C=C/c1ccc(-n2c3ccccc3c3ccccc32)cc1)=C\\c1ccncc1", "nm", 436]
]}

---

- method-description: solvent given as SMILES
- condition-context: in CC#N
We begin with a simple list: items and their reported emission maximum.

{"columns": ["molecule", "emission maximum (nm)"],
 "data": [
  ["c1cc2ccc3cc4cccc5ccc6cc(c1)c2c3c6c54", 436],
  ["COC(=O)c1cc(=O)n(C)c2cc(-c3ccccc3)sc12", 462],
  ["COc1ccc(-c2nc3ccccc3nc2/C=C/N2CCCC2)s1", 583.94],
  ["COc1c2ccccc2c(OC)c2c1c1ccc(F)cc1n2C", 413],
  ["COc1ccc(C2=C3C(C)=CC(C)=[N+]3[B-](F)(F)n3c(/C=C/c4ccc(N(C)C)cc4)cc(C)c32)cc1", 717],
  ["Cc1cc2c(ccc3c[n+](C)c(C)cc32)c[n+]1C", 419],
  ["CCn1c2ccc(/C=C/c3ccc4c(c3)c3cc(-c5nc6ccccc6s5)ccc3n4CC)cc2c2cc(-c3nc4ccccc4s3)ccc21", 491],
  ["N#Cc1nn(-c2ccccc2C(F)(F)F)nc1N1CCCC1", 433],
  ["COc1ccc(/C=C/C=C/C2=NC3C(=O)NC(N)=NC3N2[C@H]2C[C@H](O)[C@@H](CO)O2)cc1 (stereo partly drawn)", 441],
  ["COc1ccc(C2=C3C=CC(C)=[N+]3[B-](F)(F)n3c(C)ccc32)cc1", 517],
  ["CN(C)c1ccc(/C=C/c2cnc3ccccc3n2)cc1", 611],
  ["CC1=[N+]2C(=C(c3ccccc3)c3c4ccccc4c(C)n3[B-]2(F)F)c2ccccc21", 606],
  ["NCc1ccc2ccc3cccc4ccc1c2c34", 375],
  ["CNCCCN1c2ccccc2CCc2ccccc21", 348],
  ["CN(C)c1ccc(-c2cc3c(s2)c(C(=O)c2ccccc2)cc(=O)n3Cc2ccccc2)cc1", 521],
  ["N#C/C(=C\\c1ccc(C(F)(F)F)cc1)c1nc(-c2ccc(Cl)cc2)cs1", 490],
  ["CN(C)c1ccc(C2=Nc3scc[n+]3[B-](F)(F)O2)cc1", 469],
  ["CC(C)(C)c1ccc(-c2nc3c4ccc(-c5cc6ccccc6c6ccccc56)cc4c4cc(-c5cc6ccccc6c6ccccc56)ccc4c3n2-c2ccc(C(C)(C)C)cc2)cc1", 405],
  ["Cc1ccc(S(=O)(=O)Nc2cc(-c3ccc(N(C)C)cc3)sc2/C=C/c2ccccc2)cc1", 604],
  ["[BH3-][P+]1(c2ccccc2)c2ccccc2-c2sc3ccccc3c21 (stereo not drawn)", 401],
  ["COc1cccc(-c2c3ccccc3c3n2[B-](F)(F)[N+]2=Cc4c5ccccc5c(-c5cccc(OC)c5)n4[B-](F)(F)[N+]2=C3)c1", 596],
  ["C=Cc1cc2ccc(N(CC)CC)cc2oc1=O", 470],
  ["Cc1ccc(C2=[N+]3C(=Cc4ccc(C)n4[B-]3(F)F)c3ccccc32)[nH]1", 620],
  ["CC(=O)c1c2c(c(C(C)=O)c3c1OC(CC(=O)O)O3)OCO2", 553],
  ["Cc1cc(O)c(C(=O)/C=C/c2ccc(Cl)cc2Cl)c(=O)o1", 473],
  ["Cc1csc2[n+]1[B-](F)(F)OC(c1ccc(N(C)C)cc1)=N2", 466],
  ["CCOC(=O)c1c2c3c(ccc(Cl)c3c3cc4ccccc4cc13)N(C)C2=O", 414],
  ["C/C(=N\\Nc1ccc(C#N)cc1)c1cccc(/C(C)=N/Nc2ccc(C#N)cc2)c1", 492],
  ["CN(C)c1ccc(C2=Cc3c4ccccc4c4ccccc4[n+]3[B-](F)(F)O2)cc1", 569],
  ["CCOC(=O)CN1C(=O)C2=C(c3ccccc3)N(CC(=O)OCC)C(=O)C2=C1c1ccccc1", 512],
  ["O=C1O/C(=C\\c2cccs2)c2ccccc21", 438],
  ["Cc1cc(C)cc(NC(=O)c2sc(Br)nc2C)c1", 399],
  ["COc1ccc(-c2cc(-c3ccc(OC)cc3)c3c(N)nc(N4CCCC4)c(C#N)c3n2)cc1", 516]
]}

---

- method-description: solvent given as SMILES
- condition-context: in ClCCl
We begin with a simple list: items and their reported emission maximum.

{"columns": ["compound", "emission maximum (nm)"],
 "data": [
  ["CCCCC(CC)Cn1c2cc(C#N)ccc2c2ccc(C#Cc3ccc4ccc5c(C#Cc6ccc7c8ccc(C#N)cc8n(CC(CC)CCCC)c7c6)cc(C#Cc6ccc7c8ccc(C#N)cc8n(CC(CC)CCCC)c7c6)c6ccc3c4c56)cc21 (stereo not drawn)", 458],
  ["c1ccc(-c2nc(-c3cccc4ccccc34)n3ccccc23)cc1", 486],
  ["Cc1ccc(C2=[N+]3C(=Cc4ccc(C)n4[B-]3(F)F)c3ccccc32)[nH]1", 624],
  ["Cc1ccc(N(c2ccc(C)cc2)c2ccc(-c3cc4c(cc(-c5ccc(N(c6ccc(C)cc6)c6ccc(C)cc6)cc5)c5nsnc54)c4nsnc34)cc2)cc1", 683],
  ["COc1cccc2cc(C)c3c4ccccc4[nH]c3c12", 365],
  ["N#Cc1ccc(-n2c(-c3ccc(-c4ccc(-c5nc6c7ccccc7c7ccccc7c6n5-c5ccc(C#N)c6ccccc56)cc4)cc3)nc3c4ccccc4c4ccccc4c32)c2ccccc12", 430],
  ["CCOC(=O)c1sc(-c2ccc(-c3cc(C4CC4)c(C(=O)OCC)s3)s2)cc1C1CC1", 448],
  ["CN(C)c1ccc(N2c3sc4ccccc4c3Sc3sc4ccccc4c32)cc1", 424],
  ["CN(c1ccccc1)c1ccc(N(c2ccccc2)c2ccc3ccc4c(N(c5ccccc5)c5ccc(N(C)c6ccccc6)cc5)ccc5ccc2c3c54)cc1", 620],
  ["O=c1c2cccc3cccc(c32)c2nc3ccccc3n12", 499],
  ["C(=C\\c1ncnc2ccccc12)/c1ccc(N2CCCCC2)cc1", 558],
  ["CC1(C)CC(/C=C/c2cn(-c3ccccc3)nc2-c2ccccc2)=CC(=C(C#N)C#N)C1", 550],
  ["CCCCn1c2ccc(-c3ccc4c(c3)c3c5c(ccc6ccccc65)ccc3n4CCCC)cc2c2c3c(ccc4ccccc43)ccc21", 437],
  ["C(=C\\c1ncnc2ccccc12)/c1ccc(-c2ccc(N(c3ccccc3)c3ccccc3)cc2)cc1", 610],
  ["NC1=N/C(=N\\c2ccccn2)c2cccc3cccc1c23", 506],
  ["O=C(Nc1ccccc1[N+](=O)[O-])c1ccc2oc(-c3cc4ccccc4oc3=O)nc2c1", 443],
  ["CN(C)c1ccc(/C=C/C=C/c2nc3ccccc3o2)cc1", 525],
  ["N#Cc1ccc(-n2c(-c3ccc(-c4ccc(-n5c6ccccc6c6ccccc65)cc4)s3)nc3c4ccccc4c4ccccc4c32)c2ccccc12", 400],
  ["COc1cc2c(cc1/C=C/C(=C(C#N)C#N)c1ccccc1)c1ccccc1n2C", 560],
  ["CN(C)CCN(Cc1c2ccccc2cc2ccccc12)c1ccc([N+](=O)[O-])cc1[N+](=O)[O-]", 393],
  ["CCN(CC)c1ccc2c(c1)oc(=O)c1c(C)nc3c(c(-c4ccccc4)nn3-c3ccccc3)c12", 461],
  ["CCC(CC)COC1=CC2=C3c4cc(OCC(CC)CC)c(-c5cccs5)n4[B-](F)(F)[n+]4c3n(c3cc(C(C)(C)C)ccc34)[B-](F)(F)[N+]2=C1c1cccs1", 811],
  ["CCN(CC)c1ccc2c(c1)oc(=O)c1c(=O)oc3c(C)c4oc(=O)c5c(=O)oc6cc(N(CC)CC)ccc6c5c4cc3c12", 542]
]}
